- Assay target: ERβ (Homo sapiens)
- Construct: gene ESR2; isolated recombinant human ERβ (Invitrogen)
- Sequence (Q92731 whole entry): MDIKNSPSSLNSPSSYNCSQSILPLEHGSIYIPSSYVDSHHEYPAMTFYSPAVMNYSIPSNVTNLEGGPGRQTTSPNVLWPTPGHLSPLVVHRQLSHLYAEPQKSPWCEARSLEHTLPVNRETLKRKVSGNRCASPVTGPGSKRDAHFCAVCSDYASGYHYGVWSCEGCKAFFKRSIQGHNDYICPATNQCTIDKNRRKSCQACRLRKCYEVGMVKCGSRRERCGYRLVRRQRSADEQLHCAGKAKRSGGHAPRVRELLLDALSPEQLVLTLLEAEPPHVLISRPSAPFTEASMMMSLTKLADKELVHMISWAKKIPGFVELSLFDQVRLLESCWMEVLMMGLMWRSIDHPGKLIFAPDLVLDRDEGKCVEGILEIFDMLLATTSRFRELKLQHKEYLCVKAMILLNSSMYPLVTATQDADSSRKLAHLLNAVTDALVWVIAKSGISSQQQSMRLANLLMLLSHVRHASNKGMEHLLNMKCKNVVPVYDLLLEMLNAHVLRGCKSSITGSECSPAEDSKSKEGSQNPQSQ
- Experiment summary: fluorescence polarization competition, displacement of fluorescent estrogen ES2 (Beacon […])
- Type: binding
- Cond: 1 nM ES2 tracer; relative to estradiol = 100
Measured property: RBAβ^a

Consider the following illustrative entries.
1) CC/C(=C(\c1ccc(O)cc1)c1ccc(OC(=O)CBr)cc1)c1ccc(O)cc1 [6b] = 82.39
2) CC/C(=C(\c1ccc(O)cc1)c1ccc(OC(=O)CCl)cc1)c1ccc(O)cc1 [6a] = 62.14
3) CC/C(=C(\c1ccc(O)cc1)c1ccc(OC(=O)CN2CCOCC2)cc1)c1ccc(O)cc1 [8c] = 16.79

[1] CC/C(=C(\c1ccc(O)cc1)c1ccc(C(=O)NCCCBr)cc1)c1ccc(O)cc1 [compound 14]
[2] CC/C(=C(\c1ccc(O)cc1)c1ccc(OC(=O)CN(C)C)cc1)c1ccc(O)cc1 [8a]
Task: Which record shows the lower RBAβ^a: the first, 1 , or the second, 2 ? Which one? Tell me its label.
Result: 1
